- Test system: Acinetobacter baumannii
- Protocol: Potentiation of colistin-induced antimicrobial activity against colistin-resistant Acinetobacter baumannii ATCC 17978 expressing mcr1 gene assessed as fold reduction in colistin MIC at 60 uM after 18 hrs by broth microdilution assay
- Assay type: functional
List of fold change (FC) values.
Answer field: number only, no words.

Molecular string	fold change (FC)
O=C(NCCc1c[nH]c2ccccc12)c1sccc1Br	4
CCCCn1c(C(=O)NCCc2c[nH]c3ccccc23)cc(Br)c1Br	2
O=C(NCCc1c[nH]c2ccccc12)c1cncc(Br)c1	0

If you can, please state the reported fold change (FC) value of O=C(NCCc1c[nH]c2ccccc12)c1cc(I)c[nH]1 .
16

Look up fold change (FC): Cn1cccc1C(=O)NCCc1c[nH]c2ccccc12
0

Recorded fold change (FC) of O=C(NCCc1c[nH]c2ccccc12)c1cc(Br)c(Br)n1Cc1ccccc1 , please.
2

Please give the measured fold change (FC) for this compound: O=C(NCCc1c[nH]c2ccccc12)c1ccc[nH]1
2

What value of fold change (FC) has been recorded for this entry: O=C(NC1Cc2ccccc2C1)c1cc(Br)c(Br)[nH]1
0

====

- Tested on: Acinetobacter baumannii
- Protocol: Potentiation of colistin-induced antimicrobial activity against colistin-resistant Acinetobacter baumannii 4106 assessed as fold reduction in colistin MIC at 60 uM after 18 hrs by broth microdilution assay
- Type: functional
Recorded metric: fold change (FC)
Lab note: record the figure alone, no unit after it.

Solved cases below.
Molecular string	fold change (FC)
CCCCn1c(C(=O)NCCc2c[nH]c3ccccc23)cc(Br)c1Br	16
Cn1cccc1C(=O)NCCc1c[nH]c2ccccc12	2
O=C(NCCc1c[nH]c2ccccc12)c1cc(Br)c(Br)[nH]1	512
O=C(NCCc1c[nH]c2ccccc12)c1ccccn1	8

Value lookup for fold change (FC); key = O=C(NCCc1c[nH]c2ccccc12)c1cc(Br)c(Br)o1
64

Endpoint output: fold change (FC) of O=C(NCCc1c[nH]c2ccccc12)c1cncc(Br)c1 . Value?
4

====

Recorded measurements of fold change (FC), one per entry
- Tested on: Acinetobacter baumannii
- Protocol: Potentiation of colistin-induced antimicrobial activity against colistin-resistant Acinetobacter baumannii isolate 3942 assessed as fold reduction in colistin MIC at 60 uM after 18 hrs by broth microdilution assay
- Format: functional
// response body must contain only the number

Molecular string	fold change (FC)
O=C(NCCc1c[nH]c2ccccc12)c1cc(I)c(I)[nH]1	128

Given the compound O=C(NCCCc1c[nH]c2ccccc12)c1cc(Br)c(Br)[nH]1 , what is its reported fold change (FC)?
256

Which fold change (FC) reading was recorded for the compound O=C(NCCc1c[nH]c2ccccc12)c1cccc(Br)n1 ?
8

For the compound O=C(NCc1c[nH]c2ccccc12)c1cc(Br)c(Br)[nH]1 , what fold change (FC) is on record?
2048

====

Property: fold change (FC); scope: individual molecules
- Tested on: Acinetobacter baumannii
- Protocol: Potentiation of colistin-induced antimicrobial activity against colistin-resistant Acinetobacter baumannii ATCC 17978 expressing mcr1 gene assessed as fold reduction in colistin MIC at 60 uM after 18 hrs by broth microdilution assay
- Format: functional
Enter the number alone.

Consider the following illustrative entries.
Molecular string	Assay target	Recorded metric	Readout value
O=C(NCCc1c[nH]c2ccccc12)c1cc(Br)c(Br)[nH]1	Acinetobacter baumannii	fold change (FC)	32
O=C(NCc1c[nH]c2ccccc12)c1cc(Br)c(Br)[nH]1	Acinetobacter baumannii	fold change (FC)	32
Cn1cc(Br)cc1C(=O)NCCc1c[nH]c2ccccc12	Acinetobacter baumannii	fold change (FC)	4
O=C(NCCCc1c[nH]c2ccccc12)c1cc(Br)c(Br)[nH]1	Acinetobacter baumannii	fold change (FC)	32
O=C(NCCc1ccccn1)c1cc(Br)c(Br)[nH]1	Acinetobacter baumannii	fold change (FC)	0

Consider the molecule shown here: O=C(NCc1ccc2cc[nH]c2c1)c1cc(Br)c(Br)[nH]1 What is its recorded fold change (FC)?
32

Which fold change (FC) value belongs to O=C(NCCc1c[nH]c2ccccc12)c1cc(Br)c[nH]1 ?
16

So what's the measured fold change (FC) for this one? COc1ccc2[nH]cc(CCNC(=O)c3cc(Br)c(Br)[nH]3)c2c1
8

Returns the measured fold change (FC) for the input molecule. Input: O=C(NCCc1c[nH]c2ccccc12)c1cccs1
0

Which fold change (FC) reading was recorded for the molecule O=C(NCCc1csc2ccccc12)c1cc(Br)c(Br)[nH]1 ?
8

Any idea what fold change (FC) was measured for O=C(NCCc1c[nH]c2ccccc12)c1ccccn1 ?
0

====

- Tested on: Acinetobacter baumannii
- Protocol: Potentiation of colistin-induced antimicrobial activity against colistin-resistant Acinetobacter baumannii isolate 4112 assessed as fold reduction in colistin MIC at 60 uM after 18 hrs by broth microdilution assay
- Format: functional
This listing pairs molecules with measured fold change (FC).
Number only, no unit.

Known fold change (FC) results, listed for orientation:
Molecular string	Assay target	fold change (FC)
O=C(NCCc1c[nH]c2cc(F)ccc12)c1cc(Br)c(Br)[nH]1	Acinetobacter baumannii	512
O=C(NCCc1c[nH]c2ccccc12)c1cc(Br)c(Br)[nH]1	Acinetobacter baumannii	512
O=C(NCc1ccc2cc[nH]c2c1)c1cc(Br)c(Br)[nH]1	Acinetobacter baumannii	256
O=C(NCCc1c[nH]c2ccccc12)c1cc(I)c(I)[nH]1	Acinetobacter baumannii	128

Sample O=C(NCCc1c[nH]c2ccccc12)c1cccc(Br)n1 — what was its fold change (FC)?
8

Fill in the blank: the reported fold change (FC) of O=C(NCc1c[nH]c2ccccc12)c1cc(Br)c(Br)[nH]1 is ____.
2048

====

# fold change (FC) annotations
- Test system: Acinetobacter baumannii
- Protocol: Potentiation of colistin-induced antimicrobial activity against colistin-resistant Acinetobacter baumannii ATCC 17978 expressing mcr1 gene assessed as fold reduction in colistin MIC at 60 uM after 18 hrs by broth microdilution assay
- Type: functional
Form rule: numeric answer, no unit written next to it.

Molecular string	Readout value
Cn1cc(CCNC(=O)c2cc(Br)c(Br)[nH]2)c2ccccc21	0
O=C(NCCc1c[nH]c2ccccc12)c1ccc(Br)o1	2
O=C(NCCc1c[nH]c2ccccc12)c1cc(I)c(I)[nH]1	16
O=C(NCc1c[nH]c2ccccc12)c1cccc(Br)n1	0
O=C(NCCc1c[nH]c2ccccc12)c1cc(Br)c(Br)o1	16

# ---- query compound ----
Name the recorded fold change (FC) for O=C(NCCc1c[nH]c2ccccc12)c1cc(Br)c(Br)s1 .
16

====

- Test system: Acinetobacter baumannii
- Protocol: Potentiation of colistin-induced antimicrobial activity against colistin-resistant Acinetobacter baumannii 4106 assessed as fold reduction in colistin MIC at 60 uM after 18 hrs by broth microdilution assay
- Assay type: functional
Each item that follows carries a reported fold change (FC).
# print the numeric value only

Reference set, count: 5
Molecular string	Recorded metric	Readout value
O=C(NCCc1c[nH]c2ccccc12)c1ccc(Br)c(Br)n1	fold change (FC)	8
O=C(NCCc1c[nH]c2ccccc12)c1cc(Br)c[nH]1	fold change (FC)	64
O=C(NCCc1c[nH]c2ccccc12)c1cccc(Br)n1	fold change (FC)	16
Cc1cccc2c(CCNC(=O)c3cc(Br)c(Br)[nH]3)c[nH]c12	fold change (FC)	256
O=C(NCCc1c[nH]c2ccccc12)c1cc(I)c(I)[nH]1	fold change (FC)	128

fold change (FC) for O=C(NCCc1cn(Cc2ccccc2)c2ccccc12)c1cc(Br)c(Br)[nH]1 ?
0

Give its fold change (FC) value. Item: O=C(NCc1ccccc1)c1cc(Br)c(Br)[nH]1
2

Field request: fold change (FC) | item: Cn1cc(Br)cc1C(=O)NCCc1c[nH]c2ccccc12
32

Data request, read-out fold change (FC), for O=C(NCCc1ccccn1)c1cc(Br)c(Br)[nH]1
0

GET /values?readout=fold change (FC)&item= O=C(NC1Cc2ccccc2C1)c1cc(Br)c(Br)[nH]1
8

I'd like to know its fold change (FC). The compound in question is O=C(NCCc1c[nH]c2ccccc12)c1cc(Cl)c[nH]1
16

Item O=C(NCCc1c[nH]c2ccccc12)c1cc(I)c[nH]1 has what recorded fold change (FC)?
64

Name the recorded fold change (FC) for CCCCn1cc(CCNC(=O)c2cc(Br)c(Br)[nH]2)c2ccccc21 .
0

Entry under review: Cn1c(C(=O)NCCc2c[nH]c3ccccc23)cc(Br)c1Br . Reported fold change (FC)?
32

Quick one: fold change (FC) of O=C(NCc1ccc2cc[nH]c2c1)c1cc(Br)c(Br)[nH]1 ?
256

What does the data say about its fold change (FC)? Entry: O=C(NCCc1c[nH]c2ccccc12)c1sccc1Br
64

Fill in the blank: the reported fold change (FC) of O=C(NCCc1c[nH]c2cc(F)ccc12)c1cc(Br)c(Br)[nH]1 is ____.
512

Which fold change (FC) is listed for Cn1cc(CCNC(=O)c2cc(Br)c(Br)[nH]2)c2ccccc21 ?
4

For the compound O=C(NCCc1c[nH]c2ccccc12)c1ccc[nH]1 , what fold change (FC) is on record?
2

Look up fold change (FC): O=C(NCc1c[nH]c2ccccc12)c1cc(Br)c(Br)[nH]1
2048

Dear colleague, I am looking for the recorded fold change (FC) of the following compound: COc1ccc2[nH]cc(CCNC(=O)c3cc(Br)c(Br)[nH]3)c2c1
128
